- Tested on: SK-MES-1
- Assay Comment: relative viability (nuclei count vs DMSO), 5 days (fraction); higher = more cells survive
- Condition Info: first compound 0.04 µM
Recorded relative viability for the following compounds
# print the numeric value only

Guide cases for relative viability, answers given:
Clc1ccc(Nc2nnc(Cc3ccncc3)c3ccccc23)cc1 [Vatalanib] + C[C@@H](Oc1cc(-c2cnn(C3CCNCC3)c2)cnc1N)c1c(Cl)ccc(F)c1Cl [Crizotinib] (partner 1 µM); 1.01
Clc1ccc(Nc2nnc(Cc3ccncc3)c3ccccc23)cc1 [Vatalanib] + CC(=O)Nc1cccc(-n2c(=O)n(C3CC3)c(=O)c3c(Nc4ccc(I)cc4F)n(C)c(=O)c(C)c32)c1 [Trametinib] (partner 0.02 µM); 0.507

// switching to the query compound
Briefly, relative viability measured for C[C@@H]1CN(CC(=O)Nc2ccc3c(c2)Cc2cccc(-c4cc(=O)cc(N5CCOCC5)o4)c2S3)C[C@H](C)O1 + N=C(N)NC(=N)NCCc1ccccc1 [Phenformin] (partner 250 µM) : 0.723

* * *

- System: HCC-827
- Assay Comment: relative viability (nuclei count vs DMSO), 5 days (fraction); higher = more cells survive
- Condition Info: first compound 4 µM
Lab note: anything with relative viability below 0.4 is marked Condition met; values at 0.4 or higher are marked Condition not met.

C[C@@H]1CN(CC(=O)Nc2ccc3c(c2)Cc2cccc(-c4cc(=O)cc(N5CCOCC5)o4)c2S3)C[C@H](C)O1 + CS(=O)(=O)CCNCc1ccc(-c2ccc3ncnc(Nc4ccc(OCc5cccc(F)c5)c(Cl)c4)c3c2)o1 [Lapatinib] (partner 2 µM); Condition met
COc1cc(N2CCC(C(N)=O)CC2)ccc1Nc1nc(N)c(Cl)c(Nc2ccccc2S(=O)(=O)C(C)C)n1 [HG-5-88-01] + N=C(N)NC(=N)NCCc1ccccc1 [Phenformin] (partner 250 µM); Condition met
COc1cc(N2CCC(C(N)=O)CC2)ccc1Nc1nc(N)c(Cl)c(Nc2ccccc2S(=O)(=O)C(C)C)n1 [HG-5-88-01] + Nc1nc2[nH]cc(CCc3ccc(C(=O)N[C@@H](CCC(=O)O)C(=O)O)cc3)c2c(=O)[nH]1 [Pemetrexed] (partner 0.2 µM); Condition met
C[C@@H]1CN(CC(=O)Nc2ccc3c(c2)Cc2cccc(-c4cc(=O)cc(N5CCOCC5)o4)c2S3)C[C@H](C)O1 + C[C@]1(O)C[C@@H](c2nc(-c3ccc4ccc(-c5ccccc5)nc4c3)c3c(N)nccn32)C1 [Linsitinib] (partner 1 µM); Condition not met
C[C@@H]1CN(CC(=O)Nc2ccc3c(c2)Cc2cccc(-c4cc(=O)cc(N5CCOCC5)o4)c2S3)C[C@H](C)O1 + O=C(c1cc(Cc2n[nH]c(=O)c3ccccc23)ccc1F)N1CCN(C(=O)C2CC2)CC1 [Olaparib] (partner 8 µM); Condition not met
Clc1ccc(Nc2nnc(Cc3ccncc3)c3ccccc23)cc1 [Vatalanib] + Cc1cc(Nc2cc(N3CCN(C)CC3)nc(Sc3ccc(NC(=O)C4CC4)cc3)n2)n[nH]1 [Tozasertib] (partner 0.1 µM); Condition met

QUERY: Regarding Clc1ccc(Nc2nnc(Cc3ccncc3)c3ccccc23)cc1 [Vatalanib] + CC(=O)Nc1cccc(-n2c(=O)n(C3CC3)c(=O)c3c(Nc4ccc(I)cc4F)n(C)c(=O)c(C)c32)c1 [Trametinib] (partner 0.02 µM) , kindly confirm whether its relative viability is beneath 0.4.
RESULT: Condition not met

QUERY: Regarding C[C@@H]1CN(CC(=O)Nc2ccc3c(c2)Cc2cccc(-c4cc(=O)cc(N5CCOCC5)o4)c2S3)C[C@H](C)O1 + N=C(N)NC(=N)NCCc1ccccc1 [Phenformin] (partner 250 µM) , kindly confirm whether its relative viability is beneath 0.4.
RESULT: Condition not met

QUERY: Regarding C[C@@H]1CN(CC(=O)Nc2ccc3c(c2)Cc2cccc(-c4cc(=O)cc(N5CCOCC5)o4)c2S3)C[C@H](C)O1 + Nc1ncn([C@H]2C[C@H](O)[C@@H](CO)O2)c(=O)n1 [Decitabine] (partner 2 µM) , kindly confirm whether its relative viability is beneath 0.4.
RESULT: Condition met

QUERY: Regarding C[C@@H]1CN(CC(=O)Nc2ccc3c(c2)Cc2cccc(-c4cc(=O)cc(N5CCOCC5)o4)c2S3)C[C@H](C)O1 + Cc1nc(Nc2ncc(C(=O)Nc3c(C)cccc3Cl)s2)cc(N2CCN(CCO)CC2)n1 [Dasatinib] (partner 0.075 µM) , kindly confirm whether its relative viability is beneath 0.4.
RESULT: Condition met

* * *

Recorded relative viability for the following compounds
- Test system: COR-L23
- Assay Comment: relative viability (nuclei count vs DMSO), 5 days (fraction); higher = more cells survive
- Condition Info: first compound 0.8 µM
# print the numeric value only

CCCCCCCCCCCC1=C(O)C(=O)C=C(O)C1=O [Embelin] + COc1cccc2cc(-c3nc([C@H]4CC[C@H](C(=O)O)CC4)n4ncnc(N)c34)[nH]c12 [OSI-027] (partner 0.5 µM); 0.92
CCCCCCCCCCCC1=C(O)C(=O)C=C(O)C1=O [Embelin] + CS(=O)(=O)CCNCc1ccc(-c2ccc3ncnc(Nc4ccc(OCc5cccc(F)c5)c(Cl)c4)c3c2)o1 [Lapatinib] (partner 2 µM); 0.966
CCCCCCCCCCCC1=C(O)C(=O)C=C(O)C1=O [Embelin] + CC(C)C[C@H](NC(=O)[C@H](Cc1ccccc1)NC(=O)c1cnccn1)B(O)O [Bortezomib] (partner 0.002 µM); 1.1
CCCCCCCCCCCC1=C(O)C(=O)C=C(O)C1=O [Embelin] + C[C@]1(O)C[C@@H](c2nc(-c3ccc4ccc(-c5ccccc5)nc4c3)c3c(N)nccn32)C1 [Linsitinib] (partner 1 µM); 1.08

Briefly, relative viability measured for CCCCCCCCCCCC1=C(O)C(=O)C=C(O)C1=O [Embelin] + CC1(C)CCC(c2ccc(Cl)cc2)=C(CN2CCN(c3ccc(C(=O)NS(=O)(=O)c4ccc(N[C@H](CCN5CCOCC5)CSc5ccccc5)c(S(=O)(=O)C(F)(F)F)c4)cc3)CC2)C1 [Navitoclax] (partner 0.5 µM) : 1.32

Briefly, relative viability measured for CCCCCCCCCCCC1=C(O)C(=O)C=C(O)C1=O [Embelin] + CS(=O)(=O)N1CCN(Cc2cc3nc(-c4cccc5[nH]ncc45)nc(N4CCOCC4)c3s2)CC1 [Pictilisib] (partner 1 µM) : 0.958

Briefly, relative viability measured for CCCCCCCCCCCC1=C(O)C(=O)C=C(O)C1=O [Embelin] + N=C(N)NC(=N)NCCc1ccccc1 [Phenformin] (partner 250 µM) : 0.542

* * *

- Tested on: NCI-H441
- Assay Comment: relative viability (nuclei count vs DMSO), 5 days (fraction); higher = more cells survive
- Condition Info: first compound 1.265 µM
Lab note: anything with relative viability below 0.5 is marked MET; values at 0.5 or higher are marked NOT MET.

Clc1ccc(Nc2nnc(Cc3ccncc3)c3ccccc23)cc1 [Vatalanib] + Cc1nc(Nc2ncc(C(=O)Nc3c(C)cccc3Cl)s2)cc(N2CCN(CCO)CC2)n1 [Dasatinib] (partner 0.075 µM); NOT MET
COc1cc(N2CCC(C(N)=O)CC2)ccc1Nc1nc(N)c(Cl)c(Nc2ccccc2S(=O)(=O)C(C)C)n1 [HG-5-88-01] + O=C(CCCCCCC(=O)Nc1ccccc1)NO [Vorinostat] (partner 1 µM); NOT MET
Clc1ccc(Nc2nnc(Cc3ccncc3)c3ccccc23)cc1 [Vatalanib] + N=C(N)NC(=N)NCCc1ccccc1 [Phenformin] (partner 250 µM); NOT MET
Clc1ccc(Nc2nnc(Cc3ccncc3)c3ccccc23)cc1 [Vatalanib] + Nc1ncn([C@H]2C[C@H](O)[C@@H](CO)O2)c(=O)n1 [Decitabine] (partner 2 µM); MET

Now consider a different molecule.
QUERY: Regarding Clc1ccc(Nc2nnc(Cc3ccncc3)c3ccccc23)cc1 [Vatalanib] + CS(=O)(=O)N1CCN(Cc2cc3nc(-c4cccc5[nH]ncc45)nc(N4CCOCC4)c3s2)CC1 [Pictilisib] (partner 1 µM) , kindly confirm whether its relative viability is beneath 0.5.
RESULT: MET

* * *

Recorded relative viability for the following molecules
- System: NCI-H1734
- Assay Comment: relative viability (nuclei count vs DMSO), 5 days (fraction); higher = more cells survive
- Condition Info: first compound 0.4 µM
# print the numeric value only

C[C@@H]1CN(CC(=O)Nc2ccc3c(c2)Cc2cccc(-c4cc(=O)cc(N5CCOCC5)o4)c2S3)C[C@H](C)O1 + CS(=O)(=O)N1CCN(Cc2cc3nc(-c4cccc5[nH]ncc45)nc(N4CCOCC4)c3s2)CC1 [Pictilisib] (partner 1 µM); 0.468
COc1cc(N2CCC(C(N)=O)CC2)ccc1Nc1nc(N)c(Cl)c(Nc2ccccc2S(=O)(=O)C(C)C)n1 [HG-5-88-01] + NC(=O)Nc1cc(-c2cccc(F)c2)sc1C(=O)N[C@H]1CCCNC1 [AZD7762] (partner 0.2 µM); 0.52
Clc1ccc(Nc2nnc(Cc3ccncc3)c3ccccc23)cc1 [Vatalanib] + C[C@@H](Oc1cc(-c2cnn(C3CCNCC3)c2)cnc1N)c1c(Cl)ccc(F)c1Cl [Crizotinib] (partner 1 µM); 0.796

Briefly, relative viability measured for COc1cc(N2CCC(C(N)=O)CC2)ccc1Nc1nc(N)c(Cl)c(Nc2ccccc2S(=O)(=O)C(C)C)n1 [HG-5-88-01] + C[C@]1(O)C[C@@H](c2nc(-c3ccc4ccc(-c5ccccc5)nc4c3)c3c(N)nccn32)C1 [Linsitinib] (partner 1 µM) : 0.964

Recorded values, source the supplement of paper PMC10307832.
